Tested on: SF-268 CNS
Test: NCI tumour cell line growth inhibition, 48 h
Would you mind telling me the reported TGI of each entry?

These recorded examples may help you get a feel for the data.
CCN(CC)CCN1CC(O)=C(c2nc(-c3ccc(Cl)cc3)cs2)C1=N	3.93 µM
CCC(C)C(=O)OC1C(=O)OC2CC3C(C)=CC(=O)C(O)C3(C)C3C4(O)OCC23C1C(C)C4O (stereo unspecified)	0.124 µM
O=C(O)CC1OCC=C2CN3CCC45c6ccccc6NC4C1C2CC35 (stereo unspecified)	> 100 µM
CC/C=C\C[C@@H]1C/C=C2/C(=O)C=C[C@H]2C/C=C\CCCC(=O)O1	3.67 µM
CCOC(=O)/C=C/CC(C)(C)COC(C)=O	> 10 µM
COc1cc(OC(=O)c2c(O)cc(O)c(O)c2C)cc(C)c1C(=O)Oc1cc(C)c(C(=O)O)c(O)c1	> 100 µM

Return reported TGI values for all items listed beneath this line.
1. N#Cc1ccc(NC(=NCC(=O)O)Nc2cccc3ccccc23)cc1
2. COc1ccc(C(=O)COc2cccc(/C=C3\COc4ccc5ccccc5c4C3=O)c2)cc1
3. COC(=O)c1cc(Br)c(Br)n1C

Reply text:
> 10 µM
> 100 µM
> 100 µM

# return TGI for each item in the list
1. O=C1CSC(c2ccccc2)N1c1nc2cc3sc(N4C(=O)CSC4c4ccccc4)nc3cc2s1 (stereo unspecified)
2. C=C(C)C1CC=C(C)C(=O)C1 (stereo unspecified)

Reply text:
> 100 µM
> 100 µM
